target desc: mushroom tyrosinase
test details: Mushroom tyrosinase inhibition assay (L-DOPA substrate, DOPA chrome at 470 nm)
assay context: 37 °C, 30 min, pH 6.8, triplicate
endpoint label: IC50 (µM)
Unit µM implied. Number only.

Known IC50 results, listed for orientation:
1. C[C@]1(CO)c2ccc(O)cc2OC(=O)[C@H]1CO (relative stereo) :: 49
2. C[C@@]1(CO)CC(=O)Oc2cc(O)ccc21 (stereo in doubt) :: 143
3. C[C@]1([C@@]2(C)c3ccc(O)cc3OC(=O)[C@H]2CO)c2ccc(O)cc2OC(=O)[C@H]1CO (relative stereo) :: 19.8

Next:
Reported IC50 (mushroom tyrosinase) for entry O=C1Oc2cc(O)ccc2[C@@](CO)(CCO)[C@@H]1CO (relative stereo) is 255
